The reader will find reported binding above PBS-coated wells values listed item by item below.
Biological target: T1, VP28 (White spot syndrome virus)
T1 construct: Recombinant antigen; also called Coat protein VP28
T1 chain: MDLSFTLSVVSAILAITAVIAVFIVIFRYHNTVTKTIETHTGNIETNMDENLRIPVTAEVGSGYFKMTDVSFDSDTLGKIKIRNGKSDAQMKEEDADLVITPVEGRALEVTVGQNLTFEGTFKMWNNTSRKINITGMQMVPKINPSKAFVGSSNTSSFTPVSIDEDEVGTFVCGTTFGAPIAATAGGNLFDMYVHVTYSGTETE
Test: phage ELISA, antigen-coated wells
experimental endpoint: binding above PBS-coated wells

- binder: "NBX0730 (VHH, on phage in the phage ELISA) VHH: QVQLQESGGGLVQTGDSLRLACAASGRTFSSYPMAWYRQAPGQEREFVAGINRNGNIPVYADSVKGRFTISRDNAKNTVYLQMNNLKPEDTAVYYCAARTIYDSHYTSWGQGTQVTVSS"
  experimental endpoint: "binding above PBS-coated wells"
  observed: "≥ 50%"
- binder: "NBX0745 (VHH, on phage in the phage ELISA) VHH: QVQLQESGGGLVQAGGSLRLSCAASGRTFSSYPMGWFRQAPGKEREQIAGISRSGDPGKYAASVSGRFTISRDNAKNTLYLQMNSLKPEDTAVYYCAAREIYSNNYSYWGQGTQVTVSS"
  experimental endpoint: "binding above PBS-coated wells"
  observed: "≥ 50%"
